Listed below: inhibition values for each entry.
# test: polyglutamine-triggered caspase-3 activation inhibitors, cell-based (AID 1583)
# test_parameters: polyglutamine-induced caspase-3 activation, cell assay; stronger effect = higher value;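 tested at 10 µM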
Peptide text beside a SMILES is read from it.
Unit % implied. Number only.

For orientation, consider the following solved cases.
{"compound": "O=C(CCCN1CCC(O)(c2ccc(Cl)cc2)CC1)c1ccc(F)cc1", "value_unit": "%", "inhibition": -12.1}
{"compound": "NCCCCC(N)C(=O)NC(Cc1ccc(O)cc1)C(=O)NC(CCCCN)C(=O)O (stereo not drawn) (H-Lys-Tyr-Lys-OH; configuration not given here)", "value_unit": "%", "inhibition": -30.8}
{"compound": "COc1ccc(-c2coc3cc(O)cc(O)c3c2=O)cc1", "value_unit": "%", "inhibition": -2.46}
{"compound": "CNCCc1ccccn1", "value_unit": "%", "inhibition": 24.5}
{"compound": "CCN1CCCC1CNC(=O)c1cc(S(N)(=O)=O)ccc1OC (stereo unspecified)", "value_unit": "%", "inhibition": 17.6}

Ask: Form field: reported inhibition of CC(C)(C)CC(C)(C)c1ccc(OCCOCC[N+](C)(C)Cc2ccccc2)cc1
Reply: 70.8

Ask: I am curious: what inhibition value has been reported for Cc1ccc(N(CC2=NCCN2)c2cccc(O)c2)cc1 ?
Reply: 0.92
